Assay system: T1, human interleukin-23 receptor (IL23R) (human, UniProt Q5VWK5 24-355, limits assumed)
T1 construct: also called human IL23R
T1 sequence (looked up): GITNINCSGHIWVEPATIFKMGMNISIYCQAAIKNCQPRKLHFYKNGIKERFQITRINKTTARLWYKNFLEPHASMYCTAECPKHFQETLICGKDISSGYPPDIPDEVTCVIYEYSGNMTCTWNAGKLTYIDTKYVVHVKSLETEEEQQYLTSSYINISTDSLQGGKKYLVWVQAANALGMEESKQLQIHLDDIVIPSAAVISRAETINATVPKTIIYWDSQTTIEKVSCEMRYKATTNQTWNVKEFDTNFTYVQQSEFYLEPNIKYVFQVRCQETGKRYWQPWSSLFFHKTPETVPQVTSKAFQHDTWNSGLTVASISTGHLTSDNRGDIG
Test method notes: SPR, scFv (summary table)
Provide the recorded Kd for the entries that follow.
Numbers only, in pM.

Vκ1/VH2 consensus λ-capped, human IL23R specific scFv (scFv, scFv VL-linker-VH, made in E. coli; also called Vκ1VH2 capped) scFv: DIQMTQSPSSLSASVGDRVTITCQASENIYSFLAWYQQKPGKAPKLLIYSASKLAAGVPSRFSGSGSGTDFTLTISSLQPEDFATYYCQQTNRYSNPDIYNVFGGGTKLTVLGGGGGSGGGGSGGGGSGGGGSQVQLKESGPALVKPTQTLTLTCTFSGIDFNSNYYMCWIRQPPGKALEWLACIYVGSHVNTYYANWAKGRLTISKDTSKNQVVLTMTNMDPVDTATYYCATSGSSVLYFKFWGQGTLVTVSS : 73.1

input: Could you tell me which Kd is on file for Vκ1/VH2 consensus (uncapped), human IL23R specific scFv (scFv, scFv VL-linker-VH, made in E. coli; Vκ framework IV (uncapped, full consensus); also called Vκ1VH2 uncapped) scFv: DIQMTQSPSSLSASVGDRVTITCQASENIYSFLAWYQQKPGKAPKLLIYSASKLAAGVPSRFSGSGSGTDFTLTISSLQPEDFATYYCQQTNRYSNPDIYNVFGQGTKVEIKRGGGGSGGGGSGGGGSGGGGSQVQLKESGPALVKPTQTLTLTCTFSGIDFNSNYYMCWIRQPPGKALEWLACIYVGSHVNTYYANWAKGRLTISKDTSKNQVVLTMTNMDPVDTATYYCATSGSSVLYFKFWGQGTLVTVSS ?
output: 211
